// merged dataset of IC50 values, system = UniProtKB P25103, multiple refs
Sequence (P25103 whole entry): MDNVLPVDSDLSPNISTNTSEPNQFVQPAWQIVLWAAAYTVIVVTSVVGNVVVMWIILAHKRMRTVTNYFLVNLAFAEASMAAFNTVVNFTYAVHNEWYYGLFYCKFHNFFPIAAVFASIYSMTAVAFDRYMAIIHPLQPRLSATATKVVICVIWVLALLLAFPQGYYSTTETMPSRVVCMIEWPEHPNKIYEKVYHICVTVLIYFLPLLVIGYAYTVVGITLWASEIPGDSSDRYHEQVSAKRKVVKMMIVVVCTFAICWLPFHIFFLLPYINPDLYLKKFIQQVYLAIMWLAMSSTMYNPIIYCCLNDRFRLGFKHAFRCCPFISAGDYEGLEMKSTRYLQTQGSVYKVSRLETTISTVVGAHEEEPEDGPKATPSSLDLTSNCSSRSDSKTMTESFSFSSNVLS
measured_attribute: IC50

{"compound": "Cc1cc(COC[C@@H](N)c2ccccc2)cc(C(C)(C)C)c1", "measured_result": "13.7 nM"}
{"compound": "COc1ccccc1[C@H](C)C(=O)N1C[C@@H]2[C@H](C1)C(c1ccccc1)(c1ccccc1)CC[C@@]2(O)c1ccccc1OC", "measured_result": "13 nM"}
{"compound": "COc1cccc(C(CNC(=O)Cc2cc(C(F)(F)F)cc(C(F)(F)F)c2)N2CCC(N3CCCCC3)CC2)c1 (configuration not stated)", "measured_result": "1.5 nM"}
{"compound": "O=C(N[C@@H](Cc1c[nH]c2ccccc12)C(=O)OCc1ccc(C(F)(F)F)cc1)c1ccccc1", "measured_result": "2150 nM"}
{"compound": "FC(F)(F)c1cc(COCC2(c3ccccc3)CCC(N3CCOCC3)C2)cc(C(F)(F)F)c1 (mixture of isomers)", "measured_result": "45 nM"}
{"compound": "C[C@@H](O[C@@H]1CN(C2=CC(=O)CC2)C[C@H]1c1ccccc1)c1cc(C(F)(F)F)cc(C(F)(F)F)c1", "measured_result": "0.07 nM"}
{"compound": "C[C@@H](O[C@H]1OCCN(Cc2nn[nH]c2CN2CCCC2)[C@H]1c1ccc(F)cc1)c1cc(C(F)(F)F)cc(C(F)(F)F)c1", "measured_result": "0.21 nM"}
